assayText: Metabolic stability in human liver microsomes at 1 uM
Type: ADME, Microsome
testConditions: read-out: Stability
measureName: microsomal CLint at 1 µM (µL/min/mg)

| smilesStructure | measureName | measuredValue |
| --- | --- | --- |
| CC(=O)N[C@@H](Cc1ccc(F)cc1)[C@H](O)CN[C@H]1CC2(CCC2)Oc2ncc(CC(C)(C)C)cc21 | microsomal CLint at 1 µM | 107 |
| CC(=O)N[C@@H](Cc1cccc(F)c1)[C@H](O)CN[C@H]1C[C@]2(C[C@@H](F)C2)Oc2ncc(CC(C)(C)C)cc21 | microsomal CLint at 1 µM | 829 |
| CC(=O)N[C@@H](Cc1ccc(F)c(F)c1)[C@H](O)CN[C@H]1C[C@]2(C[C@H](C)C2)Oc2ncc(CC(C)(C)C)cc21 | microsomal CLint at 1 µM | 399 |
| CC(=O)N[C@@H](Cc1ccc(F)cc1)[C@H](O)CN[C@H]1C[C@]2(C[C@@H](O)C2)Oc2ncc(CC(C)(C)C)cc21 | microsomal CLint at 1 µM | 90 |
| CC(=O)N[C@@H](Cc1ccc(F)cc1)[C@H](O)CN[C@H]1C[C@]2(C[C@H](O)C2)Oc2ncc(CC(C)(C)C)cc21 | microsomal CLint at 1 µM | 34 |
| COCC(=O)N[C@@H](Cc1ccc(F)cc1)[C@H](O)CN[C@H]1C[C@]2(C[C@H](O)C2)Oc2ncc(CC(C)(C)C)cc21 | microsomal CLint at 1 µM | 115 |
| CC(=O)N[C@@H](Cc1ccc(F)cc1)[C@H](O)CN[C@H]1C[C@]2(C[C@H](C)C2)Oc2ncc(CC(C)(C)C)cc21 | microsomal CLint at 1 µM | 108 |
| CC(=O)N[C@@H](Cc1ccc(F)cc1)[C@H](O)CN[C@H]1C[C@]2(C[C@@H](F)C2)Oc2ncc(CC(C)(C)C)cc21 | microsomal CLint at 1 µM | 223 |
| CC(=O)N[C@@H](Cc1ccc(F)cc1)[C@H](O)CN[C@H]1C[C@]2(CC[C@H]2C)Oc2ncc(CC(C)(C)C)cc21 | microsomal CLint at 1 µM | 68 |
| CC(=O)N[C@@H](Cc1ccc(F)c(F)c1)[C@H](O)CN[C@H]1C[C@]2(C[C@@H](C)C2)Oc2ncc(CC(C)(C)C)cc21 | microsomal CLint at 1 µM | 775 |
| C=CC[C@H](NC(C)=O)[C@H](O)CN[C@H]1CC2(CCC2)Oc2ncc(CC(C)(C)C)cc21 | microsomal CLint at 1 µM | 79 |
| CC(=O)N[C@@H](Cc1cccc(F)c1)[C@H](O)CN[C@H]1CC2(CCC2)Oc2ncc(CC(C)(C)C)cc21 | microsomal CLint at 1 µM | 621 |
| CC(=O)N[C@@H](Cc1ccc(F)cc1)[C@H](O)CN[C@H]1C[C@]2(C[C@@H](C)C2)Oc2ncc(CC(C)(C)C)cc21 | microsomal CLint at 1 µM | 246 |
| CC(=O)N[C@@H](Cc1ccc(F)cc1)[C@H](O)CN[C@H]1C[C@]2(C[C@H](F)C2)Oc2ncc(CC(C)(C)C)cc21 | microsomal CLint at 1 µM | 240 |
| CC(=O)N[C@@H](Cc1ccc(F)cc1)[C@H](O)CN[C@H]1C[C@]2(CC[C@@H]2C)Oc2ncc(CC(C)(C)C)cc21 | microsomal CLint at 1 µM | 232 |
